molecular target: GST-tagged ROR gamma ligand binding domain (LBD) (Homo sapiens, UniProt P51449); construct: purchased Invitrogen; test: TR-FRET assay for ROR gamma (LanthaScreen co-activator peptide recruitment); assay type: biochemical; settings: compound concentration 10 μM; TR-FRET ratio 520/495, percent of control
measured-property: inhibition at 10 µM (%)
Provide only the numeric value, understood in %.

In: inhibition at 10 µM for CCC(F)(F)c1ccc(CC(=O)Nc2ccc(-n3nc(C)cc3-c3ccc(F)cc3)cc2)cc1 [Example 20] ?
Out: 78

---

Biological target: GST-tagged ROR gamma ligand binding domain (LBD) (Homo sapiens, UniProt P51449)
Sequence (P51449 269-508 limits assumed): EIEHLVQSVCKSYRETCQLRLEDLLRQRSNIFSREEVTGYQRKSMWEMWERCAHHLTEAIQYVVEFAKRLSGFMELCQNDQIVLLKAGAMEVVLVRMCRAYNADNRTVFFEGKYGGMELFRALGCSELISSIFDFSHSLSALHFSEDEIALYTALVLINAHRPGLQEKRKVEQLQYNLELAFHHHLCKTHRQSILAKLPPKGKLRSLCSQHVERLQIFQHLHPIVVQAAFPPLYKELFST
measured-property: IC50

In: For the molecule `CCC(F)(F)c1ccc(CC(=O)Nc2ccc(-n3nc(C)cc3-c3ccc(Cl)cc3Cl)cc2)cc1` , what IC50 is on record?
Out: 100 to 500 nM

In: What does the data say about its IC50? Entry: `CCC(F)(F)c1ccc(CC(=O)Nc2ccc(-c3nccnc3N[C@@H](C)c3ccccc3Cl)cc2)cc1`
Out: < 50 nM

In: Reported IC50 for `CCC(F)(F)c1ccc(CC(=O)Nc2ccc(-c3nccnc3N(C)Cc3ccccc3)cc2)cc1` : what is it?
Out: 100 to 500 nM

In: Data request, read-out IC50, for `CCC(F)(F)c1ccc(CC(=O)Nc2ccc(-c3nccnc3N[C@@H](C)c3ccc(C)cc3C)cc2)cc1`
Out: < 50 nM

In: Any idea what IC50 was measured for CC(O)C(F)(F)c1ccc(CC(=O)Nc2ccc(-c3nccnc3-c3ccccc3Cl)cc2)cc1 (centres unmarked) ?
Out: < 50 nM

In: Which IC50 reading was recorded for the molecule `CCC(F)(F)c1ccc(CC(=O)Nc2ccc(-c3nccnc3-c3ccccc3)cc2)cc1` ?
Out: 100 to 500 nM

In: Name the recorded IC50 for `CCC(F)(F)c1ccc(CC(=O)Nc2ccc(-c3ncccc3-c3ccc(Cl)cc3)cc2)cc1` .
Out: < 50 nM

In: Can you share its IC50? I mean this molecule: `CCC(F)(F)c1ccc(CC(=O)Nc2ccc(-c3nccnc3-c3ccc(F)cc3F)cc2)cc1`
Out: 50 to 100 nM

In: Which IC50 value is on record for `COCC(F)(F)c1ccc(CC(=O)Nc2ccc(-c3nccnc3-c3ccc(Cl)cc3)cc2)cc1` ?
Out: 50 to 100 nM

In: Need IC50, item `CCC(F)(F)c1ccc(CC(=O)Nc2ccc(-c3nccnc3OCc3ccc(F)cc3Cl)cc2)cc1`
Out: < 50 nM

In: Returns the measured IC50 for the input molecule. Input: CCC(F)(F)c1ccc(CC(=O)Nc2ccc(-c3nccnc3OC(C)c3ccccc3C3CC3)cc2)cc1 (centres unmarked)
Out: 100 to 500 nM

In: What value of IC50 has been reported for the following molecule? `CCC(F)(F)c1ccc(CC(=O)Nc2ccc(-c3nccnc3N(C)[C@@H](C)c3ccc(Cl)cc3)cc2)cc1`
Out: 100 to 500 nM

In: Look up IC50 for this molecule: `CCc1ccccc1-c1nccnc1-c1ccc(NC(=O)Cc2ccc(C(F)(F)[C@@H](C)O)cc2)cc1`
Out: < 50 nM

In: State the recorded IC50 for this entry: `CCC(F)(F)c1ccc(CC(=O)Nc2ccc(-c3nccnc3-c3ccccc3C)cc2)cc1`
Out: < 50 nM
